- target: DNA-dependent protein kinase catalytic subunit (Homo sapiens)
- Sequence (P78527 whole entry): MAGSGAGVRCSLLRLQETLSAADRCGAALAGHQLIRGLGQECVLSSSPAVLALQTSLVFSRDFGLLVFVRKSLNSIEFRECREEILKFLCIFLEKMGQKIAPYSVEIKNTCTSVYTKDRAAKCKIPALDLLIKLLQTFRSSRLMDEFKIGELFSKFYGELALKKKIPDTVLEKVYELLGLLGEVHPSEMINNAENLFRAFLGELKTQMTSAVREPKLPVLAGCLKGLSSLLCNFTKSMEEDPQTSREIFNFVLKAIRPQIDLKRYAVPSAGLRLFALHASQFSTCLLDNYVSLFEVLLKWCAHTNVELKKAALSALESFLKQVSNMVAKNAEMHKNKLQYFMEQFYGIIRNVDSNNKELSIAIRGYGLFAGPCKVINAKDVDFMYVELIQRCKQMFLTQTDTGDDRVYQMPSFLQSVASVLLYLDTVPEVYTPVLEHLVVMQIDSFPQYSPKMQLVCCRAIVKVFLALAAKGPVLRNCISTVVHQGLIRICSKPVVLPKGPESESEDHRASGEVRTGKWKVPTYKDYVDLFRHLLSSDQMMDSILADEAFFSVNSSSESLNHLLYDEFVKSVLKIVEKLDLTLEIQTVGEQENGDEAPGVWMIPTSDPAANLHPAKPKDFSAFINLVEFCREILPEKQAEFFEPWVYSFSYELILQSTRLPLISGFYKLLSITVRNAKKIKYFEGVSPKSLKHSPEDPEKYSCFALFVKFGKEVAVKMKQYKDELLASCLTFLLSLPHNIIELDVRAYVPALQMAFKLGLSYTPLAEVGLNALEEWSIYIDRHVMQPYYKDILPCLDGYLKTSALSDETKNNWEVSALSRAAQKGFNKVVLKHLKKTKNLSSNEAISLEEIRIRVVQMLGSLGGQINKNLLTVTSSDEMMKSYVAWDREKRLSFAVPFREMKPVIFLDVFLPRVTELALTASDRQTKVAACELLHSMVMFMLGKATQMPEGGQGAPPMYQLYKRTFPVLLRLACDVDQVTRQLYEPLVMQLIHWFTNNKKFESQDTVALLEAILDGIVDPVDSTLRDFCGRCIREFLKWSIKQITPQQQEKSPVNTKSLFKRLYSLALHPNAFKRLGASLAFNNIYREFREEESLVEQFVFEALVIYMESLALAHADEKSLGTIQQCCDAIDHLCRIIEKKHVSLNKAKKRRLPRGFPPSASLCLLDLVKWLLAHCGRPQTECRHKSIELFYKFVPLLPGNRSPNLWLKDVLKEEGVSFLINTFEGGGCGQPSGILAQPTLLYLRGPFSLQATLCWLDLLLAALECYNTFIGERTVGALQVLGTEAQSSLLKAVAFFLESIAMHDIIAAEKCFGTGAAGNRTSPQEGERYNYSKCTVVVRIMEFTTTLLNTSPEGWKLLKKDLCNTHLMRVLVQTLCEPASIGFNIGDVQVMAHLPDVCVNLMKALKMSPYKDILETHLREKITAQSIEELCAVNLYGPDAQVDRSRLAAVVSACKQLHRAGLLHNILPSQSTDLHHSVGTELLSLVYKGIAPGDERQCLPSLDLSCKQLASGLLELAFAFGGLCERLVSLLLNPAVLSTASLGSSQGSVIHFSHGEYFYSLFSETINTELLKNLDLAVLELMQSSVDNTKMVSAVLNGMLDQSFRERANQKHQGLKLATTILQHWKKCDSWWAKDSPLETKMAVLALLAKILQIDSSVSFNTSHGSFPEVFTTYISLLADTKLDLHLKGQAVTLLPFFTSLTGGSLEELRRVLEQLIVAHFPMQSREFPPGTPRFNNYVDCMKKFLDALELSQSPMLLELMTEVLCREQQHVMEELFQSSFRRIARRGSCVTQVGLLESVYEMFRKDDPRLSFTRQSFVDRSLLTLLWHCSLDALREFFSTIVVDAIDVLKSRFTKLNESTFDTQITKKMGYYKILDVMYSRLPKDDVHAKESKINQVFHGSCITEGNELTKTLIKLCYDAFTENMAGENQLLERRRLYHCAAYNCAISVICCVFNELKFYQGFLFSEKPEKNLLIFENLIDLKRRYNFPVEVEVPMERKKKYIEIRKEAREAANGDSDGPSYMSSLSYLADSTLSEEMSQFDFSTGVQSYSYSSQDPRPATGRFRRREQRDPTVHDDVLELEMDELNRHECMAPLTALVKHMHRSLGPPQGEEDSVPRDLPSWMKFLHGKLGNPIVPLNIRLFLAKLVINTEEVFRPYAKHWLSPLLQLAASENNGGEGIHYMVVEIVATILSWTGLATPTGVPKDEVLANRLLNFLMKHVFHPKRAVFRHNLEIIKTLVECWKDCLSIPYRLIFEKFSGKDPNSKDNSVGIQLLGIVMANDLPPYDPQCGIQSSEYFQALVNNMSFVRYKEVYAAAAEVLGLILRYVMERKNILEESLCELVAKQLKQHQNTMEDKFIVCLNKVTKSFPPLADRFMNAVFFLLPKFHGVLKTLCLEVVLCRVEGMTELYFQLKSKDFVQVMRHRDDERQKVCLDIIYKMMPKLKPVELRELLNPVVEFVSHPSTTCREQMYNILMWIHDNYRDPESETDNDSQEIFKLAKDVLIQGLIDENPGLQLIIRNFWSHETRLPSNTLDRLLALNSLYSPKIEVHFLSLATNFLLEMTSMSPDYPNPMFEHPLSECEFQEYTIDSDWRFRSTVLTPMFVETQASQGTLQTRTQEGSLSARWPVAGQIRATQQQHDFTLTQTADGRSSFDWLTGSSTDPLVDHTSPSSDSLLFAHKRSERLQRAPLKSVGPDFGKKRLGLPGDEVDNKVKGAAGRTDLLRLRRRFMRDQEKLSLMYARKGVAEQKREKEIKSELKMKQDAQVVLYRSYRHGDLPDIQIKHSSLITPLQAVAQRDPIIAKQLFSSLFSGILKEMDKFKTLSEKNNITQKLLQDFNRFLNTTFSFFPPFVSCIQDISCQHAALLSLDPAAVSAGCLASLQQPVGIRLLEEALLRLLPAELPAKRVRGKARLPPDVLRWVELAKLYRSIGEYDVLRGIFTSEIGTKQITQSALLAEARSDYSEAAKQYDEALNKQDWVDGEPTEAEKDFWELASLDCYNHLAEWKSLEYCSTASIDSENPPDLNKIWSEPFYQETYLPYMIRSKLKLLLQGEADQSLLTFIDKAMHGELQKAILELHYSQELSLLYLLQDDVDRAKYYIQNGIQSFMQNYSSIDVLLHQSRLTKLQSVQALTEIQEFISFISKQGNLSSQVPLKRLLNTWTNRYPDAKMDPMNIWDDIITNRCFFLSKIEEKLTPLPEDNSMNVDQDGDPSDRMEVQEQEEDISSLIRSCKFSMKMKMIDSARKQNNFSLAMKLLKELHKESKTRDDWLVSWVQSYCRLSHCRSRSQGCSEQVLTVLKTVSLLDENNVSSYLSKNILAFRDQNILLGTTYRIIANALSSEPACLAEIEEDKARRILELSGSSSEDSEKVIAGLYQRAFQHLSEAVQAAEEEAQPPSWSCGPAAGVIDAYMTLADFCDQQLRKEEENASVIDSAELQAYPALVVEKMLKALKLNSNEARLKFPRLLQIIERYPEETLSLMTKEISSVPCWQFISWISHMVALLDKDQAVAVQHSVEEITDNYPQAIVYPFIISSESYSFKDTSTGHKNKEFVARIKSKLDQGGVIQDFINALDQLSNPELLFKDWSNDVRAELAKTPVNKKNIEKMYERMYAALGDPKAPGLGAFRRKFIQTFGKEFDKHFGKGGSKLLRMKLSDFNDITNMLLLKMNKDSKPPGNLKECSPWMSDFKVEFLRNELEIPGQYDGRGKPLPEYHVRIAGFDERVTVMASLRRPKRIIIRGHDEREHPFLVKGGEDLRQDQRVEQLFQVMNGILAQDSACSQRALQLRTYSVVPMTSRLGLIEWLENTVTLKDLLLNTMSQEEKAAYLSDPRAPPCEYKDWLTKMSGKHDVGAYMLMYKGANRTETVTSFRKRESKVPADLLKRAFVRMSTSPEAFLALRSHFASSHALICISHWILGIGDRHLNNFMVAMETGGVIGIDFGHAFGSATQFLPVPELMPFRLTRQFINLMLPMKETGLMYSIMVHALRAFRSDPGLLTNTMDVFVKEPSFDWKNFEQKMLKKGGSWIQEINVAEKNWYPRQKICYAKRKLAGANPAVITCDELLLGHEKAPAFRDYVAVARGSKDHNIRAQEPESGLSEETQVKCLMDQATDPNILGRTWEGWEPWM
- procedure-text: Inhibitory activity against DNA-dependent protein kinase (DNA-PK) at 0.5 uM
Kindly supply the reported IC50 values for the records listed here.
Number in µM, nothing else.

Give the reported IC50 for this compound. O=c1cc(N2CCOCC2)oc2c(-c3ccsc3)cccc12
0.3

Give the reported IC50 for this compound. O=c1cc(N2CCOCC2)oc2ccccc12
1.3

Give the reported IC50 for this compound. O=c1cc(N2CCOCC2)oc2c(-c3cc4ccccc4s3)cccc12
0.8

Give the reported IC50 for this compound. CC1CN(c2cc(=O)c3ccc4ccccc4c3o2)CCO1 (stereo not given)
0.19

Give the reported IC50 for this compound. CC(=O)c1ccc(-c2cccc3c(=O)cc(N4CCOCC4)oc23)s1
0.8

Give the reported IC50 for this compound. O=c1cc(N2CCOCC2)oc2c(-c3cccc4c3oc3ccccc34)cccc12
0.04

Give the reported IC50 for this compound. O=c1cc(N2CCOCC2)oc2c(-c3ccc(CO)cc3)cccc12
0.6

Give the reported IC50 for this compound. O=c1cc(N2CCOCC2)oc2c(-c3cccc4c3sc3ccccc34)cccc12
0.02

Give the reported IC50 for this compound. O=c1cc(N2CCOCC2)oc2c(-c3cccs3)cccc12
0.3

Give the reported IC50 for this compound. COc1ccc(-c2cccc3c(=O)cc(N4CCOCC4)oc23)cc1
0.9
